- Test system: galium
- test protocol: Test C pre-/postemergence herbicide test
- Type: in vivo, Galium aparine
- experimental setup: Preemergence, 31 g ai/ha; scale 0 to 100, 0 is no effect and 100 is complete control
Form field: Galium plant response rating (one value per entry).
measured parameter: Galium plant response rating

>>> df
                                   molecule  val
0  O=C1NCC(c2cccc(OC(F)(F)F)c2)C1C(=O)Nc1cccc(F)c1F (stereo not shown) [Compound 68]    0
1  O=C1NCC(c2ccc(C(F)(F)F)c(F)c2)C1C(=O)Nc1ccccc1F (racemic) [Compound 246]   10
2  O=C1NCC(c2ccccc2)C1C(=O)Nc1ccccc1F (racemic) [Compound 81]    0
3  O=C1NCC(c2cccc(C(F)(F)F)c2)C1C(=O)Nc1ccccc1Cl (racemic) [Compound 189]    0
4  O=C1NCC(c2cccc(C(F)(F)F)c2)C1C(=O)Nc1ccc(F)cc1F (racemic) [Compound 207]    0
5  O=C1NCC(c2cccc(OC(F)F)c2)C1C(=O)Nc1ccc(F)c(F)c1F (stereo not shown) [Compound 325]    0
6  O=C1NCC(c2ccc(F)cc2)C1C(=O)Nc1cccc(F)c1F (racemic) [Compound 119]   80

====

Form field: Plant response rating, Blackgrass (one value per entry).
- System: blackgrass
- test protocol: Test C pre-/postemergence herbicide test
- Type: in vivo, Alopecurus myosuroides
- experimental setup: Preemergence, 125 g ai/ha; scale 0 to 100 (0 no effect, 100 complete control)
measured parameter: Plant response rating, Blackgrass

>>> df
                                   molecule  val
0  O=C1NCC(c2ccc(C(F)(F)F)c(F)c2)C1C(=O)Nc1cccc(F)c1F (racemic)   60
1  CN1CC(c2ccc(F)c(F)c2)C(C(=O)Nc2ccccc2F)C1=O (stereo not drawn)   60
2  O=C1NCC(c2cccc(OC(F)(F)F)c2)C1C(=O)Nc1cccc(F)c1F (stereo not drawn)   60

====

- Test system: pigweed
- test protocol: Test A pre-/postemergence herbicide test
- Type: in vivo, Amaranthus retroflexus
- experimental setup: Postemergence, 125 g ai/ha; visual rating on 0 to 100 scale (0 no effect, 100 complete control), approx. 10 days
Form field: Plant response rating, Pigweed (one value per entry).
measured parameter: Plant response rating, Pigweed

>>> print(df.to_string())
                                   compound              measured_parameter  val
0  O=C1NCC(c2cccc(Br)c2)C1C(=O)Nc1cccc(F)c1F (centres unmarked)  Plant response rating, Pigweed    0
1  O=C1NCC(c2cccc(OC(F)F)c2)C1C(=O)Nc1cccc(F)c1F (centres unmarked)  Plant response rating, Pigweed   40
2  CC1(c2ccccc2)CNC(=O)C1C(=O)Nc1ccccc1F (centres unmarked)  Plant response rating, Pigweed    0
3  O=C1NCC(c2cc3ccccc3o2)C1C(=O)Nc1ccccc1C(F)(F)F (centres unmarked)  Plant response rating, Pigweed    0
4  O=C1NCC(c2cc(F)cc(F)c2)C1C(=O)Nc1cccc(F)c1F (racemic)  Plant response rating, Pigweed    0

====

- Test system: pigweed
- test protocol: Test A pre-/postemergence herbicide test
- Type: in vivo, Amaranthus retroflexus
- experimental setup: 125 g ai/ha; visual rating, 0 to 100 scale, 0 no effect, 100 complete control; approximately 10 days; preemergence
measured parameter: Plant response rating, Pigweed

In [3]: df
Out[3]:
                                   compound  test_target              measured_parameter  val
0  COc1ccc(C2CNC(=O)C2C(=O)Nc2cccc(F)c2F)cc1C(F)(F)F (stereo not shown)      pigweed  Plant response rating, Pigweed    0
1  O=C1NCC(c2ccc(C(F)(F)F)cc2)C1C(=O)Nc1ccc(F)c(F)c1F (stereo not shown)      pigweed  Plant response rating, Pigweed   50
2  CC(C)(C)c1cccc(C2CNC(=O)C2C(=O)Nc2cccc(F)c2F)c1 (racemic)      pigweed  Plant response rating, Pigweed    0
3  Cc1cc(C2CNC(=O)C2C(=O)Nc2ccccc2Cl)ccc1F (racemic)      pigweed  Plant response rating, Pigweed    0
4  O=C1NCC(c2cccc(C(F)(F)F)c2)C1C(=O)Nc1ccc(F)cc1F (racemic)      pigweed  Plant response rating, Pigweed    0
5  Cc1ccc(C2CNC(=O)C2C(=O)Nc2ccccc2F)cc1 (racemic)      pigweed  Plant response rating, Pigweed    0
6  O=C1NCC(c2ccc(F)cc2)C1C(=O)Nc1cccc(F)c1F (racemic)      pigweed  Plant response rating, Pigweed   30
